- System: IFNα-Induced STAT Phosphorylation in Human Whole Blood
- Protocol Text: IFNα-Induced STAT Phosphorylation in Human Whole Blood
- Type: cell-based
- Reported Conditions: 1 h incubation with compound, 1000 U/mL recombinant human IFNα A/D for 15 min, pSTAT5 (pY694) median fluorescence intensity in CD3 positive population, read-out: hWB IC50
Measured Quantity: IC50 (nM)

molecule="[2H]C([2H])([2H])NC(=O)c1nnc(NC(=O)C2CC2)cc1Nc1cccc(-c2ncc(N3CCOCC3=O)cn2)c1OC [Example 117]" measured_quantity=IC50 recorded_result=111
molecule="[2H]C([2H])([2H])NC(=O)c1nnc(Nc2cnn(CC)n2)cc1Nc1cccc(-c2ncccn2)c1OC [Example 86]" measured_quantity=IC50 recorded_result=96
molecule="[2H]C([2H])([2H])NC(=O)c1nnc(NC(=O)C2CC2)cc1Nc1cccc(-c2ncc(C(=O)N3CCCC3)cn2)c1OC [Example 47]" measured_quantity=IC50 recorded_result=126
molecule="[2H]C([2H])([2H])NC(=O)c1nnc(NC(=O)C2CC2)cc1Nc1cccc(-c2cnc(N3CCOCC3)cn2)c1OC [Example 57]" measured_quantity=IC50 recorded_result=117
